Details: in n-propanol, 308.15 K
quantity-kind: solubility (mole fraction)

COC(=O)Nc1nc2ccc(Sc3ccccc3)cc2[nH]1: 0.000123

###

Details: in n-butanol, 303.15 K
quantity-kind: solubility (mole fraction)

COC(=O)Nc1nc2ccc(Sc3ccccc3)cc2[nH]1: 0.00012

###

Conditions: in 1,4-dioxane, 313.15 K
quantity-kind: solubility (mole fraction)

COC(=O)Nc1nc2ccc(Sc3ccccc3)cc2[nH]1: 0.00214

###

Conditions: in methanol, 298.15 K
quantity-kind: solubility (mole fraction)

COC(=O)Nc1nc2ccc(Sc3ccccc3)cc2[nH]1: 5.14e-05

###

Details: in ethyl acetate, 278.15 K
quantity-kind: solubility (mole fraction)

COC(=O)Nc1nc2ccc(Sc3ccccc3)cc2[nH]1: 0.000308

###

Conditions: in ethanol, 283.15 K
quantity-kind: solubility (mole fraction)

COC(=O)Nc1nc2ccc(Sc3ccccc3)cc2[nH]1: 5.02e-05

###

Conditions: in methanol, 288.15 K
quantity-kind: solubility (mole fraction)

COC(=O)Nc1nc2ccc(Sc3ccccc3)cc2[nH]1: 4.57e-05

###

Settings: in isopropanol, 308.15 K
quantity-kind: solubility (mole fraction)

COC(=O)Nc1nc2ccc(Sc3ccccc3)cc2[nH]1: 5.2e-05

###

Conditions: in 1,4-dioxane, 288.15 K
quantity-kind: solubility (mole fraction)

COC(=O)Nc1nc2ccc(Sc3ccccc3)cc2[nH]1: 0.0011

###

Conditions: in acetonitrile, 288.15 K
quantity-kind: solubility (mole fraction)

COC(=O)Nc1nc2ccc(Sc3ccccc3)cc2[nH]1: 2.06e-05

###

Details: in 1,4-dioxane, 298.15 K
quantity-kind: solubility (mole fraction)

COC(=O)Nc1nc2ccc(Sc3ccccc3)cc2[nH]1: 0.00145

###

Conditions: in isopropanol, 313.15 K
quantity-kind: solubility (mole fraction)

COC(=O)Nc1nc2ccc(Sc3ccccc3)cc2[nH]1: 5.82e-05

###

Conditions: in ethyl acetate, 313.15 K
quantity-kind: solubility (mole fraction)

COC(=O)Nc1nc2ccc(Sc3ccccc3)cc2[nH]1: 0.000768

###

Settings: in ethanol, 303.15 K
quantity-kind: solubility (mole fraction)

COC(=O)Nc1nc2ccc(Sc3ccccc3)cc2[nH]1: 6.99e-05

###

Conditions: in acetonitrile, 273.15 K
quantity-kind: solubility (mole fraction)

COC(=O)Nc1nc2ccc(Sc3ccccc3)cc2[nH]1: 1.31e-05

###

Details: in n-butanol, 278.15 K
quantity-kind: solubility (mole fraction)

COC(=O)Nc1nc2ccc(Sc3ccccc3)cc2[nH]1: 8.03e-05

###

Details: in ethyl acetate, 308.15 K
quantity-kind: solubility (mole fraction)

COC(=O)Nc1nc2ccc(Sc3ccccc3)cc2[nH]1: 0.000684

###

Settings: in isopropanol, 298.15 K
quantity-kind: solubility (mole fraction)

COC(=O)Nc1nc2ccc(Sc3ccccc3)cc2[nH]1: 4.12e-05

###

Settings: in acetone, 278.15 K
quantity-kind: solubility (mole fraction)

COC(=O)Nc1nc2ccc(Sc3ccccc3)cc2[nH]1: 0.000167

###

Settings: in acetonitrile, 293.15 K
quantity-kind: solubility (mole fraction)

COC(=O)Nc1nc2ccc(Sc3ccccc3)cc2[nH]1: 2.36e-05

###

Conditions: in ethyl acetate, 273.15 K
quantity-kind: solubility (mole fraction)

COC(=O)Nc1nc2ccc(Sc3ccccc3)cc2[nH]1: 0.000266
